Origin of the recorded values: ChEMBL document CHEMBL3603745

Quick reference for MIC among some compounds
- Tested on: Pseudomonas aeruginosa
- Measurement Notes: Antibacterial activity against wild type Pseudomonas aeruginosa PAO1 by broth microdilution method
- Type: functional
Assay Metric: MIC (µg/mL)

>>> df
                              smiles_string  prefix_operator  recorded_value
0  O=C(O)c1cn(C2CC2)c2cc(N3CCN(CCOCCOCCOCCOCCOCCOCCOCCN4CCN(c5cc6c(cc5F)c(=O)c(C(=O)O)cn6C5CC5)CC4)CC3)c(F)cc2c1=O                =              16
1  CC(C)(C)OC(=O)NCCCCCC(=O)N1CCN(c2cc3c(cc2F)c(=O)c(C(=O)O)cn3C2CC2)CC1                >              32
2  C=CCN1CCN(c2cc3c(cc2F)c(=O)c(C(=O)O)cn3C2CC2)CC1                =               1
3  O=C(O)c1cn(C2CC2)c2cc(N3CCN(C(=O)OCCOCCOCCOC(=O)N4CCN(c5cc6c(cc5F)c(=O)c(C(=O)O)cn6C5CC5)CC4)CC3)c(F)cc2c1=O                >              32
4  CN(CC(=O)N1CCN(c2cc3c(cc2F)c(=O)c(C(=O)O)cn3C2CC2)CC1)CC(=O)N1CCN(c2cc3c(cc2F)c(=O)c(C(=O)O)cn3C2CC2)CC1                =               2
5  O=C(O)c1cn(C2CC2)c2cc(N3CCN(CCOCCOCCN4CCN(c5cc6c(cc5F)c(=O)c(C(=O)O)cn6C5CC5)CC4)CC3)c(F)cc2c1=O                =              32
6  O=CN1CCN(c2cc3c(cc2F)c(=O)c(C(=O)O)cn3C2CC2)CC1                =               2
